target_or_test_system: PAK7 (human) (UniProt Q9P286)
Sequence (Q9P286 whole entry, looked up): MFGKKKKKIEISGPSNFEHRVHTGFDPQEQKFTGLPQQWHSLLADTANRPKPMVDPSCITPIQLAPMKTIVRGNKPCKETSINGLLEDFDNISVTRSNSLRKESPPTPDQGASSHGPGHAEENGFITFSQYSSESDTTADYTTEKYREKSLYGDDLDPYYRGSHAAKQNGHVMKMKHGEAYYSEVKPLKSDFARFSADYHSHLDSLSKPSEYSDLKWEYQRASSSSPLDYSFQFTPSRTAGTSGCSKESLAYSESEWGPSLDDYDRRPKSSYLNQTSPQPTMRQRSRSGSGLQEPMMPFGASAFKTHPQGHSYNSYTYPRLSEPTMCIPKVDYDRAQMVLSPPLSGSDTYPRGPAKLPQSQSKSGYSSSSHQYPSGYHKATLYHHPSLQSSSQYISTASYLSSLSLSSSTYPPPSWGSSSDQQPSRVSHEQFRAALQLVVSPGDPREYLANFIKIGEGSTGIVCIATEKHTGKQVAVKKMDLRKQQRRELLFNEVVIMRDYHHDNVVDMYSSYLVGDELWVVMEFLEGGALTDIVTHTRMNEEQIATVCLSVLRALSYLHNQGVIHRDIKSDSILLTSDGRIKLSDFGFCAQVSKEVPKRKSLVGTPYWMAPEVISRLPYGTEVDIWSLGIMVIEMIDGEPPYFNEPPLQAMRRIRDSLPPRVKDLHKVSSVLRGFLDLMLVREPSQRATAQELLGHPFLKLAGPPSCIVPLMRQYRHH
experiment: KINOMEscan competition binding
cond: compound 10.0 µM
reported_property: kinase still bound, per cent of control (%)

| compound | value |
| --- | --- |
| CCN1CCN(Cc2ccc(NC(=O)c3ccc(C)c(/C=C/c4cnc5[nH]ccc5c4OC)c3)cc2C(F)(F)F)CC1 | 100 |
| Cc1cn(-c2cc(C(=O)Nc3ccc(C)c(NC(=O)c4ccno4)c3)cc(C(F)(F)F)c2)cn1 | 100 |
| CCc1nc(-c2cccc(C)c2)c(-c2ccnc(NC(=O)c3ccccc3)c2)s1 | 90 |
| CCOc1cc(N2CCC(O)CC2)ccc1Nc1ncc2c(n1)N(C)c1ccccc1C(=O)N2C | 100 |
| N#Cc1cc(-c2ccnc(Nc3ccc(-n4cnc(-c5cccnc5)n4)cc3)n2)cc(N2CCOCC2)c1 | 21 |
| CC1=C(C(=O)Nc2cc3cn[nH]c3cc2F)C(c2ccc(C(F)(F)F)cc2)CC(=O)N1 (stereo not drawn) | 79 |
| CNC(=O)Nc1ccc(-c2nc(N3CC4CCC(C3)O4)c3cnn(C4CCC5(CC4)OCCO5)c3n2)cc1 | 100 |
| COc1cc(C)c(Sc2cnc(NC(=O)c3ccc(CNC(C)C(C)C)cc3)s2)cc1C(=O)N1CCN(C(C)=O)CC1 (stereo not drawn) | 100 |
| COc1ccc(N(C(=O)Oc2cc(C(=O)Nc3cccc(C(F)(F)F)c3)ccc2C)c2ccnc(Nc3ccc(N4CCN(C)CC4)cc3)n2)c(OC)c1 | 100 |
| CC(=O)c1c(C)c2cnc(Nc3ccc(N4CCNCC4)cn3)nc2n(C2CCCC2)c1=O | 35 |
| COc1cc(N2CCC(C(N)=O)CC2)ccc1Nc1nc(N)c(Cl)c(Nc2ccccc2S(=O)(=O)C(C)C)n1 | 100 |
| COc1cc2ncnc(Nc3cccc(Cl)c3)c2cc1OC | 90 |
| COc1cc2c(Nc3ccc(NC(=O)c4ccccc4)cc3)ncnc2cc1OCCCN1CCOCC1 | 94 |
| C=CC(=O)Nc1ccc(C(=O)c2sc(Nc3ccc(N4CCN(C)CC4)cc3OC)nc2N)cc1 | 71 |
| CCN(CCO)CCCOc1ccc2c(Nc3cc(CC(=O)Nc4cccc(F)c4)[nH]n3)ncnc2c1 | 100 |
| N#C/C(=C1/Nc2ccccc2S1)c1ccnc(NCCc2cccnc2)n1 | 76 |
| O=c1[nH]c2ccccc2n1C1CCN(Cc2ccc(-c3nc4cc5[nH]cnc5cc4nc3-c3ccccc3)cc2)CC1 | 58 |
| CCCS(=O)(=O)Nc1ccc(F)c(C(=O)c2c[nH]c3ncc(Cl)cc23)c1F | 44 |

###

target_or_test_system: PIK3CD (human) (UniProt O00329)
Sequence (O00329 whole entry, looked up): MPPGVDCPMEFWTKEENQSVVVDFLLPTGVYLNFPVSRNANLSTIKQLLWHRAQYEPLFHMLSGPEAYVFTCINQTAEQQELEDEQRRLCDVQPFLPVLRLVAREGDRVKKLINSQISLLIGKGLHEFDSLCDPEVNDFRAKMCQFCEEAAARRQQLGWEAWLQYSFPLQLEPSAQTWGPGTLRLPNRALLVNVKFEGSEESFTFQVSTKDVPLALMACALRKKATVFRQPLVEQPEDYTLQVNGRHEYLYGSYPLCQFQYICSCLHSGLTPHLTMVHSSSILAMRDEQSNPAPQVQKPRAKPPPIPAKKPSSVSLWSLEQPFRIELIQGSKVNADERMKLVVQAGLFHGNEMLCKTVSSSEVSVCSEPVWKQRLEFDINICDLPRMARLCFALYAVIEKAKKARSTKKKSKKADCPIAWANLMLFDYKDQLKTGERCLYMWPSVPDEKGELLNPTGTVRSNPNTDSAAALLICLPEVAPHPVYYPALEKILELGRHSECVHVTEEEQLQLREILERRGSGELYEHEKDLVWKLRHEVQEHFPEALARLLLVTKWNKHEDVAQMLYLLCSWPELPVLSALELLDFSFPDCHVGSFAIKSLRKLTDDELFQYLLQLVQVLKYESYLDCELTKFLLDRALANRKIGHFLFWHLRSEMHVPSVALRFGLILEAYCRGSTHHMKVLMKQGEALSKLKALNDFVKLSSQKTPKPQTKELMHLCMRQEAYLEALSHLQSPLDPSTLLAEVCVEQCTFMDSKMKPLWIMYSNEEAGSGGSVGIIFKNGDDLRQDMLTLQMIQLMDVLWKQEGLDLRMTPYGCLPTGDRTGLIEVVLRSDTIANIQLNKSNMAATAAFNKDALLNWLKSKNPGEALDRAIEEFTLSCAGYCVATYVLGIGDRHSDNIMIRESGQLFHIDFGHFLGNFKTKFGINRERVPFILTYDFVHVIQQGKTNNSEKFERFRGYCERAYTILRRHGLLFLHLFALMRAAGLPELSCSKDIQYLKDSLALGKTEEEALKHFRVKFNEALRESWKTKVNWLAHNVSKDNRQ
experiment: KINOMEscan competition binding
cond: compound 10.0 µM
Here the recorded kinase still bound, per cent of control is given for each entry.

| molecule | target_or_test_system | kinase still bound, per cent of control (%) |
| --- | --- | --- |
| O=c1[nH]c2ccccc2n1C1CCN(Cc2ccc(-c3nc4cc5[nH]cnc5cc4nc3-c3ccccc3)cc2)CC1 | PIK3CD (human) (UniProt O00329) | 51 |
| COc1cc2c(Nc3ccc(NC(=O)c4ccccc4)cc3)ncnc2cc1OCCCN1CCOCC1 | PIK3CD (human) (UniProt O00329) | 100 |
| CCc1nc(-c2cccc(C)c2)c(-c2ccnc(NC(=O)c3ccccc3)c2)s1 | PIK3CD (human) (UniProt O00329) | 100 |
| CCCS(=O)(=O)Nc1ccc(F)c(C(=O)c2c[nH]c3ncc(Cl)cc23)c1F | PIK3CD (human) (UniProt O00329) | 84 |
| CC1=C(C(=O)Nc2cc3cn[nH]c3cc2F)C(c2ccc(C(F)(F)F)cc2)CC(=O)N1 (centres undefined) | PIK3CD (human) (UniProt O00329) | 98 |
| COc1cc2ncnc(Nc3cccc(Cl)c3)c2cc1OC | PIK3CD (human) (UniProt O00329) | 71 |
| N#C/C(=C1/Nc2ccccc2S1)c1ccnc(NCCc2cccnc2)n1 | PIK3CD (human) (UniProt O00329) | 78 |
| CC(=O)c1c(C)c2cnc(Nc3ccc(N4CCNCC4)cn3)nc2n(C2CCCC2)c1=O | PIK3CD (human) (UniProt O00329) | 28 |
| CCOc1cc(N2CCC(O)CC2)ccc1Nc1ncc2c(n1)N(C)c1ccccc1C(=O)N2C | PIK3CD (human) (UniProt O00329) | 100 |

###

Test system: KIT (human), P10721 [A829P]
Sequence (P10721 whole entry A829P, looked up): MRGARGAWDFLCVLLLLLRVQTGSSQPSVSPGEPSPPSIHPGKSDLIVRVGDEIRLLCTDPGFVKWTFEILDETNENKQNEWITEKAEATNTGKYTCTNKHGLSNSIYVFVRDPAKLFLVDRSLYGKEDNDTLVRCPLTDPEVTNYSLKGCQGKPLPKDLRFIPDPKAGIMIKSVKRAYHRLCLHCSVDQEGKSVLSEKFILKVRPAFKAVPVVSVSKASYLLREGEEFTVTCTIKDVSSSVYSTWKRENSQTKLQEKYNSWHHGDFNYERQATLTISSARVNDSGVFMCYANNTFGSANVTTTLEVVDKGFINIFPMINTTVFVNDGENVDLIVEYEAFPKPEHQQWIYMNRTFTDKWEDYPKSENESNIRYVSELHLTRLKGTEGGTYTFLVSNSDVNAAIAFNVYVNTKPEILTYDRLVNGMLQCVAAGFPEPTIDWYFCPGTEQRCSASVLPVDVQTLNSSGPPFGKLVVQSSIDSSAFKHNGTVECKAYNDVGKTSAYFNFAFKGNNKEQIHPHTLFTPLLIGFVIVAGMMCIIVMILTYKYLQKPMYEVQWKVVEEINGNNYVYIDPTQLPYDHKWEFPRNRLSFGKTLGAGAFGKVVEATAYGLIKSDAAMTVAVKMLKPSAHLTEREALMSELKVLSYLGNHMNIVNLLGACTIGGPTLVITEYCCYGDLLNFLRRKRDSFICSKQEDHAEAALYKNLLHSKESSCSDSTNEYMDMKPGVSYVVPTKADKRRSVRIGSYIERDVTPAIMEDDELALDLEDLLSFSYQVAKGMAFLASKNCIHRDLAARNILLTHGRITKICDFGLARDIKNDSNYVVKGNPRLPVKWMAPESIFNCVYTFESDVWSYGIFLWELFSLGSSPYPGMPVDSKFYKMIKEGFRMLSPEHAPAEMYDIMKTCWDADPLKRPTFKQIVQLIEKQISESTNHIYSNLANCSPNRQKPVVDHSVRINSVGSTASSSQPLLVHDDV
experiment: KINOMEscan competition binding
cond: compound 10.0 µM
reported_property: kinase still bound, per cent of control (%)

| structure_as_smiles | target_or_test_system | value |
| --- | --- | --- |
| COc1cc2c(Nc3ccc(NC(=O)c4ccccc4)cc3)ncnc2cc1OCCCN1CCOCC1 | KIT (human), P10721 [A829P] | 59 |
| C=CC(=O)Nc1ccc(C(=O)c2sc(Nc3ccc(N4CCN(C)CC4)cc3OC)nc2N)cc1 | KIT (human), P10721 [A829P] | 63 |
| O=C(Nc1cccc(Nc2ncc(Br)c(NCCc3cnc[nH]3)n2)c1)N1CCCC1 | KIT (human), P10721 [A829P] | 28 |
| C=CC(=O)Nc1cc(-n2c(=O)ccc3cnc4ccc(-c5cn[nH]c5)cc4c32)ccc1C | KIT (human), P10721 [A829P] | 36 |

###

target_or_test_system: DYRK1A (human)
experiment: KINOMEscan competition binding
cond: compound 10.0 µM

| molecule | kinase still bound, per cent of control [%] |
| --- | --- |
| CCCS(=O)(=O)Nc1ccc(F)c(C(=O)c2c[nH]c3ncc(Cl)cc23)c1F | 76 |
| COc1cc2c(Nc3ccc(NC(=O)c4ccccc4)cc3)ncnc2cc1OCCCN1CCOCC1 | 58 |
| CNC(=O)Nc1ccc(-c2nc(N3CC4CCC(C3)O4)c3cnn(C4CCC5(CC4)OCCO5)c3n2)cc1 | 100 |
| COc1cc2ncnc(Nc3cccc(Cl)c3)c2cc1OC | 40 |
| C=CC(=O)Nc1ccc(C(=O)c2sc(Nc3ccc(N4CCN(C)CC4)cc3OC)nc2N)cc1 | 0.15 |
| N#C/C(=C1/Nc2ccccc2S1)c1ccnc(NCCc2cccnc2)n1 | 0 |
| CCN1CCN(Cc2ccc(NC(=O)c3ccc(C)c(/C=C/c4cnc5[nH]ccc5c4OC)c3)cc2C(F)(F)F)CC1 | 63 |
| CCN(CCO)CCCOc1ccc2c(Nc3cc(CC(=O)Nc4cccc(F)c4)[nH]n3)ncnc2c1 | 100 |
| CC1=C(C(=O)Nc2cc3cn[nH]c3cc2F)C(c2ccc(C(F)(F)F)cc2)CC(=O)N1 (stereo not given) | 100 |
| O=c1[nH]c2ccccc2n1C1CCN(Cc2ccc(-c3nc4cc5[nH]cnc5cc4nc3-c3ccccc3)cc2)CC1 | 90 |
| CCOc1cc(N2CCC(O)CC2)ccc1Nc1ncc2c(n1)N(C)c1ccccc1C(=O)N2C | 100 |
| N#Cc1cc(-c2ccnc(Nc3ccc(-n4cnc(-c5cccnc5)n4)cc3)n2)cc(N2CCOCC2)c1 | 3.1 |
| Cc1cn(-c2cc(C(=O)Nc3ccc(C)c(NC(=O)c4ccno4)c3)cc(C(F)(F)F)c2)cn1 | 100 |
| CCc1nc(-c2cccc(C)c2)c(-c2ccnc(NC(=O)c3ccccc3)c2)s1 | 69 |
| CC(=O)c1c(C)c2cnc(Nc3ccc(N4CCNCC4)cn3)nc2n(C2CCCC2)c1=O | 0.9 |

###

target_or_test_system: PRKX (human)
experiment: KINOMEscan competition binding
cond: compound 10.0 µM
Here the recorded kinase still bound, per cent of control is given for each entry.

| structure_as_smiles | kinase still bound, per cent of control (%) |
| --- | --- |
| COc1cc(N2CCC(C(N)=O)CC2)ccc1Nc1nc(N)c(Cl)c(Nc2ccccc2S(=O)(=O)C(C)C)n1 | 100 |
| CCN1CCN(Cc2ccc(NC(=O)c3ccc(C)c(/C=C/c4cnc5[nH]ccc5c4OC)c3)cc2C(F)(F)F)CC1 | 75 |
| CNC(=O)Nc1ccc(-c2nc(N3CC4CCC(C3)O4)c3cnn(C4CCC5(CC4)OCCO5)c3n2)cc1 | 100 |
| COc1ccc(N(C(=O)Oc2cc(C(=O)Nc3cccc(C(F)(F)F)c3)ccc2C)c2ccnc(Nc3ccc(N4CCN(C)CC4)cc3)n2)c(OC)c1 | 100 |

###

Test system: FGFR3 (human), P22607 [G697C]
Sequence (P22607 whole entry G697C, looked up): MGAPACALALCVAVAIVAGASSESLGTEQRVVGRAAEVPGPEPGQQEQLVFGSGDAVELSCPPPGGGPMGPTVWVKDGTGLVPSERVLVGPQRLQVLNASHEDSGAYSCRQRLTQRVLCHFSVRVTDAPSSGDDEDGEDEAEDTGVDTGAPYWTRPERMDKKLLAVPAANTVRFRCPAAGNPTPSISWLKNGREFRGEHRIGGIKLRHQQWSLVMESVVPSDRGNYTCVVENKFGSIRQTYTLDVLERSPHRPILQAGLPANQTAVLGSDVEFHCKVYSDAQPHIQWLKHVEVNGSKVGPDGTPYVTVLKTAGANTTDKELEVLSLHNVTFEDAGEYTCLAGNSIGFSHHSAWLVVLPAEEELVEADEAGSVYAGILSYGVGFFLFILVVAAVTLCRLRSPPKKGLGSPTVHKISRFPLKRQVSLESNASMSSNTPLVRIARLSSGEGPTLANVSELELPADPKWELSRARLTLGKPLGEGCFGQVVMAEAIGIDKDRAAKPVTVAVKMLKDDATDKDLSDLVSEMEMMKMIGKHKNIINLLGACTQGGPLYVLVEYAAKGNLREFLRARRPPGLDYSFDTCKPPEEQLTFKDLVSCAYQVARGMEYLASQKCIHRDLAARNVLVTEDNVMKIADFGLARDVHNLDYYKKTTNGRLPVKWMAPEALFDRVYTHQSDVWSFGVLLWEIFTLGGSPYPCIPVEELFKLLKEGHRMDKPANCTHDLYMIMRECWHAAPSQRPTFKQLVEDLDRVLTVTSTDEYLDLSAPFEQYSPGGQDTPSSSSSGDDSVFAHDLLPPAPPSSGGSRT
experiment: KINOMEscan competition binding
cond: compound 10.0 µM
Here the recorded kinase still bound, per cent of control is given for each entry.

| structure_as_smiles | units_of_measure | kinase still bound, per cent of control |
| --- | --- | --- |
| Cc1ccc2nc(NCCN)c3ncc(C)n3c2c1 | % | 100 |
| CN(C)C/C=C/C(=O)Nc1ccc(C(=O)Nc2cccc(Nc3nccc(-c4cccnc4)n3)c2)cc1 | % | 84 |
| CNC(=O)c1ccc(Nc2cc(Nc3ccccc3S(=O)(=O)C(C)C)c3cc[nH]c3n2)nc1 | % | 20 |
| C[C@@H](Oc1cc(-n2cnc3ccc(CN4CCN(C)CC4)cc32)sc1C(N)=O)c1ccccc1C(F)(F)F | % | 75 |
| N#Cc1c(NC(=O)c2cccc3ccccc23)sc2c1CCCC2 | % | 83 |
